Recorded TP by entry
Species on record: Rattus norvegicus
METHOD: Open TG-GATES - Regimen: Single
Type: toxicity, organism-based, Sprague-Dawley
Design: regimen Single, gender Male, age 6 weeks
TEST SETTINGS: in vivo, po, 30 mg/kg, 6 h, tissue Plasma, route gavage, dose level Middle
Please state the figure in g/dL; there is no need to write the unit.

Example cases with answers are listed next.
>  <MOL SMILES>
CN(C)CCCN1c2ccccc2CCc2ccc(Cl)cc21

>  <TP, g/dL>
5.3

$$$$
>  <MOL SMILES>
CC1=C(/C=C/C(C)=C/C=C/C(C)=C/CO)C(C)(C)CCC1

>  <TP, g/dL>
5.6

$$$$
>  <MOL SMILES>
CN(C)CCN(Cc1cccs1)c1ccccn1

>  <TP, g/dL>
5.3

$$$$

Now let's try a different one.
**Query** Consider the molecule shown here: CN(C)CCCN1c2ccccc2CCc2ccccc21 What is its recorded TP?
**Result** 5.4

###

Organism: Rattus norvegicus
METHOD: Open TG-GATES - Regimen: Single
Format: toxicity, organism-based, Sprague-Dawley
Set-up: regimen Single, gender Male, age 6 weeks
TEST SETTINGS: in vivo, po, 1000 mg/kg, 3 h, tissue Plasma, route gavage, dose level High
ASSAY METRIC: RALB (g/dL)
Please state the figure in g/dL; there is no need to write the unit.

>  <COMPOUND>
CCOC(=O)CCC(=O)O[C@H]1[C@H](O[C@@H]2[C@@H](C)[C@H](O[C@H]3C[C@@](C)(OC)[C@@H](O)[C@H](C)O3)[C@@H](C)C(=O)O[C@H](CC)[C@@](C)(O)[C@H](O)[C@@H](C)C(=O)[C@H](C)C[C@@]2(C)O)O[C@H](C)C[C@@H]1N(C)C [ERYTHROMYCIN ETHYLSUCCINATE]

>  <RALB, g/dL>
2.9

$$$$
>  <COMPOUND>
CC(C)OC(=O)C(C)(C)Oc1ccc(C(=O)c2ccc(Cl)cc2)cc1 [FENOFIBRATE]

>  <RALB, g/dL>
2.5

$$$$
>  <COMPOUND>
NC(N)=Nc1nc(CSCCC(N)=NS(N)(=O)=O)cs1

>  <RALB, g/dL>
3.3

$$$$
>  <COMPOUND>
COc1ccc2[nH]c([S+]([O-])Cc3ncc(C)c(OC)c3C)nc2c1 (stereo not given)

>  <RALB, g/dL>
3.3

$$$$

Now let's try a different one.
**Query** Consider the compound shown here: COC1=CC(=O)C[C@@H](C)[C@]12Oc1c(Cl)c(OC)cc(OC)c1C2=O What is its recorded RALB?
**Result** 3.4

###

Recorded Neu by entry
Organism: Rattus norvegicus
METHOD: Open TG-GATES - Regimen: Single
Type: toxicity, organism-based, Sprague-Dawley
Parameters: regimen Single, gender Male, age 6 weeks
TEST SETTINGS: in vivo, po, 0 mg/kg, 3 h, tissue Blood, route gavage, dose level Control
Please state the figure in %; there is no need to write the unit.

Example cases with answers are listed next.
>  <COMPOUND>
CCOC(=O)CCC(=O)O[C@H]1[C@H](O[C@@H]2[C@@H](C)[C@H](O[C@H]3C[C@@](C)(OC)[C@@H](O)[C@H](C)O3)[C@@H](C)C(=O)O[C@H](CC)[C@@](C)(O)[C@H](O)[C@@H](C)C(=O)[C@H](C)C[C@@]2(C)O)O[C@H](C)C[C@@H]1N(C)C [ERYTHROMYCIN ETHYLSUCCINATE]

>  <OUTPUT UNIT>
%

>  <Neu>
15

$$$$
>  <COMPOUND>
CC1=C(/C=C/C(C)=C/C=C/C(C)=C/CO)C(C)(C)CCC1 [RETINOL]

>  <OUTPUT UNIT>
%

>  <Neu>
16.8

$$$$
>  <COMPOUND>
Cc1ccc(C)c(OCCCC(C)(C)C(=O)O)c1 [GEMFIBROZIL]

>  <OUTPUT UNIT>
%

>  <Neu>
14.6

$$$$
>  <COMPOUND>
C[C@@H]1C[C@H]2[C@@H]3CCC4=CC(=O)C=C[C@]4(C)[C@@]3(F)[C@@H](O)C[C@]2(C)[C@@]1(O)C(=O)CO [DEXAMETHASONE]

>  <OUTPUT UNIT>
%

>  <Neu>
18

$$$$
>  <COMPOUND>
O=C(CCCN1CCC(O)(c2ccc(Cl)cc2)CC1)c1ccc(F)cc1 [HALOPERIDOL]

>  <OUTPUT UNIT>
%

>  <Neu>
13

$$$$

**Query** Consider the compound shown here: COC1=CC(=O)C[C@@H](C)[C@]12Oc1c(Cl)c(OC)cc(OC)c1C2=O [GRISEOFULVIN] What is its recorded Neu?
**Result** 19.6

**Query** // same read-out, input: NNC(=O)c1ccncc1 [ISONIAZID]
**Result** 15.6

**Query** // same read-out, input: CN(C)CCN(Cc1cccs1)c1ccccn1
**Result** 20

###

Recorded KIDNEY_L by entry
Species on record: Rattus norvegicus
METHOD: Open TG-GATES - Regimen: Single
Assay type: toxicity, organism-based, Sprague-Dawley
Design: regimen Single, gender Male, age 6 weeks
TEST SETTINGS: in vivo, po, 100 mg/kg, 24 h, tissue Kidney, route gavage, dose level High
Please state the figure in g; there is no need to write the unit.

Example cases with answers are listed next.
>  <MOLECULE>
CN(C)CCCN1c2ccccc2CCc2ccccc21 [IMIPRAMINE]

>  <MEASURED RESULT>
0.9

$$$$
>  <MOLECULE>
CC1=C(/C=C/C(C)=C/C=C/C(C)=C/CO)C(C)(C)CCC1 [RETINOL]

>  <MEASURED RESULT>
0.9

$$$$
>  <MOLECULE>
CN(C)CCN(Cc1cccs1)c1ccccn1

>  <MEASURED RESULT>
0.8

$$$$

**Query** Consider the molecule shown here: CN(C)CCCN1c2ccccc2CCc2ccc(Cl)cc21 [CLOMIPRAMINE] What is its recorded KIDNEY_L?
**Result** 1

###

Organism: Rattus norvegicus
METHOD: Open TG-GATES - Regimen: Daily Repeat
Format: toxicity, organism-based, Sprague-Dawley
Set-up: regimen Daily Repeat, gender Male, age 6 weeks
TEST SETTINGS: in vivo, po, 1000 mg/kg, […], tissue Blood, route gavage, dose level High, time 14 day
ASSAY METRIC: Lym (%)
Please state the figure in %; there is no need to write the unit.

Example cases with answers are listed next.
>  <COMPOUND>
CCOc1ccc(NC(=O)CC(C)O)cc1 (stereo not given)

>  <OUTPUT UNIT>
%

>  <Lym>
69.2

$$$$
>  <COMPOUND>
COC1=CC(=O)C[C@@H](C)[C@]12Oc1c(Cl)c(OC)cc(OC)c1C2=O

>  <OUTPUT UNIT>
%

>  <Lym>
79.8

$$$$
>  <COMPOUND>
CCOC(=O)CCC(=O)O[C@H]1[C@H](O[C@@H]2[C@@H](C)[C@H](O[C@H]3C[C@@](C)(OC)[C@@H](O)[C@H](C)O3)[C@@H](C)C(=O)O[C@H](CC)[C@@](C)(O)[C@H](O)[C@@H](C)C(=O)[C@H](C)C[C@@]2(C)O)O[C@H](C)C[C@@H]1N(C)C [ERYTHROMYCIN ETHYLSUCCINATE]

>  <OUTPUT UNIT>
%

>  <Lym>
83

$$$$
>  <COMPOUND>
COc1ccc2[nH]c([S+]([O-])Cc3ncc(C)c(OC)c3C)nc2c1 (stereo not given)

>  <OUTPUT UNIT>
%

>  <Lym>
82.2

$$$$

Now let's try a different one.
**Query** Consider the compound shown here: NC(N)=Nc1nc(CSCCC(N)=NS(N)(=O)=O)cs1 What is its recorded Lym?
**Result** 76.8

###

Organism: Rattus norvegicus
METHOD: Open TG-GATES - Regimen: Single
Format: toxicity, organism-based, Sprague-Dawley
Parameters: regimen Single, gender Male, age 6 weeks
TEST SETTINGS: in vivo, po, 300 mg/kg, 3 h, tissue Plasma, route gavage, dose level Middle
ASSAY METRIC: gamma-GTP (IU/L)
Please state the figure in IU/L; there is no need to write the unit.

>  <COMPOUND>
COc1ccc2[nH]c([S+]([O-])Cc3ncc(C)c(OC)c3C)nc2c1 (centres undefined) [OMEPRAZOLE]

>  <MEASURED RESULT>
1.6

$$$$
>  <COMPOUND>
COC1=CC(=O)C[C@@H](C)[C@]12Oc1c(Cl)c(OC)cc(OC)c1C2=O [GRISEOFULVIN]

>  <MEASURED RESULT>
1.2

$$$$
>  <COMPOUND>
CCOC(=O)CCC(=O)O[C@H]1[C@H](O[C@@H]2[C@@H](C)[C@H](O[C@H]3C[C@@](C)(OC)[C@@H](O)[C@H](C)O3)[C@@H](C)C(=O)O[C@H](CC)[C@@](C)(O)[C@H](O)[C@@H](C)C(=O)[C@H](C)C[C@@]2(C)O)O[C@H](C)C[C@@H]1N(C)C [ERYTHROMYCIN ETHYLSUCCINATE]

>  <MEASURED RESULT>
1

$$$$

Now let's try a different one.
**Query** Consider the compound shown here: NC(N)=Nc1nc(CSCCC(N)=NS(N)(=O)=O)cs1 [FAMOTIDINE] What is its recorded gamma-GTP?
**Result** 1.2
